Experiment: compound effects on multiple myeloma cell viability – MM1S, calcein-AM fluorescence, 48 h, basal, profiling panel (AID 1165); further: test concentration not given here
Conditions: higher = more signal
metric: z-score

CN(C)CCCC[C@@H]1NC(=O)[C@H]2C[C@@H](C(=O)NCCCCCNC(=O)CS)[C@@H](c3ccc(O)cc3)N2C1=O; 0.201
C=CCC(OC(C)=O)[C@@H]1[C@@H](N(Cc2cc3ccccc3o2)C(=O)c2ccc(-c3ccccc3)cc2)c2cc(OCCCO)ccc2N1C(=O)Cc1ccc2ccccc2c1 (stereo partly drawn); 0.372

Please fill in: z-score reported for "CCOC(=O)C1=C[C@@H](C(C)(C)C)N(S(=O)(=O)c2ccc(C)cc2)[C@H]1c1ccc(Cl)c(Cl)c1" = -0.266
